Target: T1, human Trop2 on cells (human, UniProt P09758 27-323)
T1 construct: whole, on cells; also called hTrop2; 293T-human Trop2 cells
T1 sequence (looked up): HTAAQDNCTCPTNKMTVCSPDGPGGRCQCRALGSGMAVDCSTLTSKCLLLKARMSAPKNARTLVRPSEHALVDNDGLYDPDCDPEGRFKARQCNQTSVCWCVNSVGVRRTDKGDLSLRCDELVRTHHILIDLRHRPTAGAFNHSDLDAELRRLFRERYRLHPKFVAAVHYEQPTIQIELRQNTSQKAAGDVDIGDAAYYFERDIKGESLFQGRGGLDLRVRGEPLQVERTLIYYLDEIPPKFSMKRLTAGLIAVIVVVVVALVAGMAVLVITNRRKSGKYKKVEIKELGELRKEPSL
Assay: flow cytometry on 293T-human Trop2 cells
Value type: Top % (%)
Kindly provide the numeric value in % only, without the unit symbol.

Tell me the measured Top % of PR001163 (antibody, human IgG1, kappa, V domains shown, fully human IgG1/kappa; also called antibody No. (24)) VH: QVQLVESGGDVVQPGRSLRLSCEASGFTFSHYGMHWVRQAPGKGLEWVAVVWYDGIKKYYVESVKGRFTISRDNSKNTLYLQMNRLRAEDTAVYYCARDGGFGELNYYGLDVWGQGTTVTVSS VL: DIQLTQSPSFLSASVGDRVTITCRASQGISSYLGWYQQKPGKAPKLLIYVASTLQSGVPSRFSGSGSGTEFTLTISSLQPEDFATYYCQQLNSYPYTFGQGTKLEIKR , please.
92.4

meta.source: patent US20240067748A1
